Molecular target: T1, programmed cell death 6-interacting protein (ALIX) V domain (human)
T1 chain: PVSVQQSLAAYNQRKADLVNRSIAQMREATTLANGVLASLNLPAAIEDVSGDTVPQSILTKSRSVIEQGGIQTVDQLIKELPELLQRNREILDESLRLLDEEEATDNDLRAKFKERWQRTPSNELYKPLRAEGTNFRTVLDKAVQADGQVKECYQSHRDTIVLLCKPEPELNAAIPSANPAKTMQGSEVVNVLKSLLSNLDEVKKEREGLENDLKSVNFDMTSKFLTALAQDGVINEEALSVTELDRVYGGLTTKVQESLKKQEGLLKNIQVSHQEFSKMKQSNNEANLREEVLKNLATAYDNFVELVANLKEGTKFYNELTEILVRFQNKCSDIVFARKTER
Test: FP
Property: pKd
The quantity pKd is defined as the negative base-10 logarithm of the molar concentration.

Could you tell me which pKd is on file for VDEEKGLYPNLKLTEPTAPMIHNYM [Nsp4_(118-142) (BAV) peptide] ?
3.80
